- test-system: EPHB2 (UniProt P29323)
- Sequence (P29323 whole entry, looked up): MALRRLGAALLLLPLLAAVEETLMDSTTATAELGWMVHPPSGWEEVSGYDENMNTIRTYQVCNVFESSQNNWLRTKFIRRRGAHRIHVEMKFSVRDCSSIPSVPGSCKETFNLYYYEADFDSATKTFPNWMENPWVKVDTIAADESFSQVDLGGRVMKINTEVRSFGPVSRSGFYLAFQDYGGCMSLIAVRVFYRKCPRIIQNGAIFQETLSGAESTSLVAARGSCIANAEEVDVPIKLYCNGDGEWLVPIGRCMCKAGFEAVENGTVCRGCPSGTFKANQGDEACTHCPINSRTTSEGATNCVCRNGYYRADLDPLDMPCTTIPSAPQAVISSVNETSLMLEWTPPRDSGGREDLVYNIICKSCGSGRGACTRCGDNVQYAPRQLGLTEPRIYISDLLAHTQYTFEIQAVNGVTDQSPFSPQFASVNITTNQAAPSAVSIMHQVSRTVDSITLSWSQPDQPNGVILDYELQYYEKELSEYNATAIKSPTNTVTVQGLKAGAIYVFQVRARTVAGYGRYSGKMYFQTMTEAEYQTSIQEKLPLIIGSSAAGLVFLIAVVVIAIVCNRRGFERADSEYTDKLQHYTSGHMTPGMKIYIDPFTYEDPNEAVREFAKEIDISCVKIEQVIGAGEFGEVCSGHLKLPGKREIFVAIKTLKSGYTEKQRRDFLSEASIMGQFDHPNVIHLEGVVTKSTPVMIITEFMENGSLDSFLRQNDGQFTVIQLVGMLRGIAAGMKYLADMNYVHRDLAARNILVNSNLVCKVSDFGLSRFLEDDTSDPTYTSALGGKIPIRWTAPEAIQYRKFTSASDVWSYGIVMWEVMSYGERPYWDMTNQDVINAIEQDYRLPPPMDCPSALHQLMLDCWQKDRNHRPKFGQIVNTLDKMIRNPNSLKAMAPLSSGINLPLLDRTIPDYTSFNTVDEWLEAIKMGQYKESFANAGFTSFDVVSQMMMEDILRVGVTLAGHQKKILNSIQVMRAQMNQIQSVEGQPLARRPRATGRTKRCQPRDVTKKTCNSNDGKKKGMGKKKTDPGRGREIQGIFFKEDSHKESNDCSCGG
- protocol-text: phosphorylation enrichment, bacterial display (enrichment ratio); higher = better substrate or ligand; peptides without Tyr show the background
// label = 1 if phosphorylation enrichment is not less than 0.5, otherwise 0

- LLKNMYLMLDN [STAT1_Y203_K201N]: 1
- GSTLSYGRDGR [MATR3_Y158_P154S]: 0
- PRQRRYVFFFS [PTEN_Y174_S170R_YF]: 0
- DVFVSYDFGKS [SORL1_Y139_YF]: 1
- TYGVVYKARNK [CDK2_Y19]: 1

Next up:
Ask | Could you please find out whether NTGNFYDLFGG [PTPN11_Y63_D61N_YF] has phosphorylation enrichment that meets 0.5 or exceeds it?
Reply | 1

----------
- test-system: Jak2 (UniProt O60674)
- protocol-text: phosphorylation enrichment, bacterial display (enrichment ratio); higher = better substrate or ligand; peptides without Tyr show the background
recorded-metric: phosphorylation enrichment
Give the value as a plain number.

Ask | For DGNTRYSTFSE [TKTL1_Y318_D315N] , what is its reported phosphorylation enrichment?
Reply | 1.01

----------
// reported phosphorylation enrichment for each item listed
- test-system: FGFR3 (UniProt P22607)
- protocol-text: phosphorylation enrichment, bacterial display (enrichment ratio); higher = better substrate or ligand; peptides without Tyr show the background
Give the value as a plain number.

* HEPKGYNANFC [TGFB2_Y341] | 0.596

Please turn your attention to the following entry.
Ask | Give FGFR3 (UniProt P22607) phosphorylation enrichment for CENCHYPIVPL [LCK_Y25]
Reply | 0.58

----------
// reported phosphorylation enrichment for each item listed
- test-system: EPHB1 (UniProt P54762)
- Sequence (P54762 whole entry, looked up): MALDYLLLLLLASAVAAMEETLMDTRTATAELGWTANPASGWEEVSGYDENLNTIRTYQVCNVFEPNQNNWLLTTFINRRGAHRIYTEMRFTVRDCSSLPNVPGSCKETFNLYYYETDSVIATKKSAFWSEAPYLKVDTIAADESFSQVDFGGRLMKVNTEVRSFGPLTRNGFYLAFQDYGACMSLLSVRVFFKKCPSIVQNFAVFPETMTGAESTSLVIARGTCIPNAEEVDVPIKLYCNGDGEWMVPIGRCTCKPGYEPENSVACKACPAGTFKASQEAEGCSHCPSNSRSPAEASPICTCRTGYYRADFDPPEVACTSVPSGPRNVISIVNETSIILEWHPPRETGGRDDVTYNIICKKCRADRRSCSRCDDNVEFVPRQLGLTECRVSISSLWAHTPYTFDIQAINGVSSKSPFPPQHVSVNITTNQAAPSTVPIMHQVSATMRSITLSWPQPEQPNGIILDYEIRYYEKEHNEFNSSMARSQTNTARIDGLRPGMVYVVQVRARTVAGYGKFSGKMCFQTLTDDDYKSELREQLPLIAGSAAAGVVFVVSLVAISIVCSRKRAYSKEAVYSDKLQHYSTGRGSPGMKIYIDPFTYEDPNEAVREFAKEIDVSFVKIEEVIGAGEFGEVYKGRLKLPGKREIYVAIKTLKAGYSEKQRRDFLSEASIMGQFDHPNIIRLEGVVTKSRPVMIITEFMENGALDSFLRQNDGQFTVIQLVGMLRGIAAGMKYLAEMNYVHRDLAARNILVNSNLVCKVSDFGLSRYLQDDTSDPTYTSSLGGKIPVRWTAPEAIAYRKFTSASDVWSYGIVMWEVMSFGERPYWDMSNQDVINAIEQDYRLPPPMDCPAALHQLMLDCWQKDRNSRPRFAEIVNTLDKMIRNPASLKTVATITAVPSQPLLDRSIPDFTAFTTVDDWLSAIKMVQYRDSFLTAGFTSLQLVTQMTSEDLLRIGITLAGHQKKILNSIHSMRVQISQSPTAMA
- protocol-text: phosphorylation enrichment, bacterial display (enrichment ratio); higher = better substrate or ligand; peptides without Tyr show the background
Give the value as a plain number.

Please review the entries below; each comes with its answer.
* ANARMYGVLPW [PLP1_Y207_D203N] | 0.513
* PEADKYHLTYA [FGG_Y300_R301H] | 0.51

Ask | Give EPHB1 (UniProt P54762) phosphorylation enrichment for GTATAYLCGVK [ALPL_Y117]
Reply | 0.512

----------
- test-system: c-Src SH2
- protocol-text: SH2 binding enrichment of the phosphorylated peptide, bacterial display (enrichment ratio); higher = better substrate or ligand; peptides without Tyr show the background
recorded-metric: SH2 binding enrichment

* FCRHNYGVVES [HLA-DRB1_Y112_YF] | 1.86
* KRISCYEARYQ [PFKFB3_Y194_S197R] | 0.591
* RLKAKYAAATG [GLI3_Y933] | 0.511
* LIDGYYRLTAD [JAK2_Y373] | 4.65

Ask | Give c-Src SH2 SH2 binding enrichment for KKFPDYIQSAM [SGMS2_Y59_I62S_YF]
Reply | 0.532

----------
- test-system: SHP2-C SH2
- protocol-text: SH2 binding enrichment of the phosphorylated peptide, bacterial display (enrichment ratio); higher = better substrate or ligand; peptides without Tyr show the background
recorded-metric: SH2 binding enrichment
Give the value as a plain number.

Please review the entries below; each comes with its answer.
- QCTSHYPEHVC [SART3_Y541_D540H]: 0.795
- PLDGEYVTLQI [TP53_Y327_F328V]: 0.498
- EDNPEYMRLRN [ADD2_Y31_D28N]: 0.73
- GSIQQYIYKQE [PRG4_Y1271]: 0.837
- EFFDGYWEFSV [ITGA2B_Y265_G267E_YF]: 0.515
- DSRRDYVSQFE [APOA1_Y53_G50R]: 0.524
- SDGHEYIFVDP [PDGFRB_Y579_YF]: 0.544
- HEPKGYNANFC [TGFB2_Y341]: 0.693
- SKDQICPMKLK [RANBP17_Y823_Y823C]: 0.586
- FEGAIYRKDIG [GART_Y417_V421I]: 0.71

Please turn your attention to the following entry.
Ask | For NQLNDYIFSFD [RARS1_Y516_R512Q] , what is its reported SH2 binding enrichment?
Reply | 0.632

----------
// reported phosphorylation enrichment for each item listed
- test-system: Fes (UniProt P07332)
- Sequence (P07332 whole entry, looked up): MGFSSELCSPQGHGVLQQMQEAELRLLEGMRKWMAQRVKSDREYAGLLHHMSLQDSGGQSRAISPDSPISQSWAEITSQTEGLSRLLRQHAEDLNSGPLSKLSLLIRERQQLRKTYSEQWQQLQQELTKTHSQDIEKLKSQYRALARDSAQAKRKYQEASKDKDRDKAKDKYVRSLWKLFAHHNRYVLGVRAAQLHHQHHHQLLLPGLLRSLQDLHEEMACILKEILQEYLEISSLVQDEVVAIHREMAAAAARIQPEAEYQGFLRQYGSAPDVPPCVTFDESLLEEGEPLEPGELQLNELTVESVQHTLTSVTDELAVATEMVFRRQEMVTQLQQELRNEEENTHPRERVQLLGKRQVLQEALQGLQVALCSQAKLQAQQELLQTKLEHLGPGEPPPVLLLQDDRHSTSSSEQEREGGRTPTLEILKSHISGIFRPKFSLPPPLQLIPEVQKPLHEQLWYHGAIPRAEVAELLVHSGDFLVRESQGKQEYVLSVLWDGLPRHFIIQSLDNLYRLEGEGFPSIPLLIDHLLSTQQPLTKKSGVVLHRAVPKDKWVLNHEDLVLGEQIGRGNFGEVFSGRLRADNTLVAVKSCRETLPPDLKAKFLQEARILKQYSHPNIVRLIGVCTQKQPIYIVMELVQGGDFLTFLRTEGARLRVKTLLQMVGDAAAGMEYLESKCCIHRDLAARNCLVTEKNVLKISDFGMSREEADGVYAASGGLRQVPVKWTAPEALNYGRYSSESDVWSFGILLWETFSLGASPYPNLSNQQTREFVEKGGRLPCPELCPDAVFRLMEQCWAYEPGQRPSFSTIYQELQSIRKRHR
- protocol-text: phosphorylation enrichment, bacterial display (enrichment ratio); higher = better substrate or ligand; peptides without Tyr show the background
Give the value as a plain number.

* LLINKYGLSAH [SCP2_Y151] | 0.99
* HPFHVYSQPGM [BAG3_Y114_P115S] | 1.39
* VFFFSYLLKNH [PTEN_Y180_YF] | 1.57

Ask | For LRRFIYRPPDQ [OTOF_Y1231_R1236Q] , what is its reported phosphorylation enrichment?
Reply | 0.606

Ask | For TEYIQYMRRKN [MAX_Y73] , what is its reported phosphorylation enrichment?
Reply | 0.615

Ask | For TFGNLYGSRKQ [YIPF7_Y59_A54T_YF] , what is its reported phosphorylation enrichment?
Reply | 0.788

----------
// reported phosphorylation enrichment for each item listed
- test-system: Fyn (UniProt P06241)
- Sequence (P06241 whole entry, looked up): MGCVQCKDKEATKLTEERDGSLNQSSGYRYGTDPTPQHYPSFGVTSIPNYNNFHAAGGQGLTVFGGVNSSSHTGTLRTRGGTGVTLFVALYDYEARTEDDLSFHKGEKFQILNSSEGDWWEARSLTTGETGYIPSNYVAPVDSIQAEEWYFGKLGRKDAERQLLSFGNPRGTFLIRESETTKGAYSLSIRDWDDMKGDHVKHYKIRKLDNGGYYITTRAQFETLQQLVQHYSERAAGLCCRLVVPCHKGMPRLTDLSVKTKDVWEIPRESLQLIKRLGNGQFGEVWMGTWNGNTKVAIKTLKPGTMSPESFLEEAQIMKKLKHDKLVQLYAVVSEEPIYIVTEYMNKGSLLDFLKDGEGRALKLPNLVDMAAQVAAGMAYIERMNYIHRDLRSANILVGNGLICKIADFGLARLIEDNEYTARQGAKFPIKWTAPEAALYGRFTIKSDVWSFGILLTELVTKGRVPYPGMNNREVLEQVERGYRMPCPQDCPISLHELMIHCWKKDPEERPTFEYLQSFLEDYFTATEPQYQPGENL
- protocol-text: phosphorylation enrichment, bacterial display (enrichment ratio); higher = better substrate or ligand; peptides without Tyr show the background

Please review the entries below; each comes with its answer.
* KWRGQYDVAIK [BTK_Y425] | 0.491
* EADRKYEEVAH [TPM3_Y163_R168H] | 0.506
* ILGRYYERGSI [PAX5_Y73_T75R] | 0.498
* DVFLKHLNFAT [PDE6B_Y212_Y212H] | 0.507
* FLAVGYHKPHI [IDS_Y225] | 0.495

Please turn your attention to the following entry.
Ask | For YIILIYAMKKK [SLCO1B1_Y645] , what is its reported phosphorylation enrichment?
Reply | 0.514

----------
- Tested on: c-Abl (mouse)
- protocol-text: phosphorylation enrichment, bacterial display (enrichment ratio); higher = better substrate or ligand; peptides without Tyr show the background
// reported phosphorylation enrichment for each item listed
Give the value as a plain number.

- EEEYEYMNRRR [ERBB3_Y1199_D1194E]: 0.329
- RRKRAYVEIEF [MAK16_Y282_Q277R_YF]: 0.58
- PRARTYCYKQE [KLHDC9_Y175_S171R]: 0.91

Ask | For KHCEDYVFSYN [DSC1_Y846_C848F] , what is its reported phosphorylation enrichment?
Reply | 0.778

Ask | For EEGNPYFSSAR [MCCC2_Y520_YF] , what is its reported phosphorylation enrichment?
Reply | 0.796

Ask | For QDRDLYPCPGT [RLF_Y671] , what is its reported phosphorylation enrichment?
Reply | 0.863

Ask | For QAEEWYFGKMG [YES1_Y159] , what is its reported phosphorylation enrichment?
Reply | 1.05

Ask | For ILKPDYQPLAI [HYDIN_Y1072] , what is its reported phosphorylation enrichment?
Reply | 0.62

Ask | For HRFAAYFQQGD [GPI_Y351] , what is its reported phosphorylation enrichment?
Reply | 0.979

Ask | For ALIKAYVKAVA [SMN1_Y43_D44V] , what is its reported phosphorylation enrichment?
Reply | 0.68

Ask | For PSELFYSKIGP [SMG1_Y2254_YF] , what is its reported phosphorylation enrichment?
Reply | 2.46

Ask | For VMVCAYLLHRG [PTEN_Y138_I135V] , what is its reported phosphorylation enrichment?
Reply | 1.18

Ask | For LSIDRYHAIVY [NPSR1_Y147] , what is its reported phosphorylation enrichment?
Reply | 0.982

Ask | For GREEFYSTHPH [LRRK2_Y1402] , what is its reported phosphorylation enrichment?
Reply | 0.418

Ask | For YSNKLYYQLEQ [PDPR_Y109] , what is its reported phosphorylation enrichment?
Reply | 0.82

Ask | For PFSNSYENSLI [EPOR_Y489_P488S_YF] , what is its reported phosphorylation enrichment?
Reply | 0.877

----------
- test-system: MERTK (UniProt Q12866)
- Sequence (Q12866 whole entry, looked up): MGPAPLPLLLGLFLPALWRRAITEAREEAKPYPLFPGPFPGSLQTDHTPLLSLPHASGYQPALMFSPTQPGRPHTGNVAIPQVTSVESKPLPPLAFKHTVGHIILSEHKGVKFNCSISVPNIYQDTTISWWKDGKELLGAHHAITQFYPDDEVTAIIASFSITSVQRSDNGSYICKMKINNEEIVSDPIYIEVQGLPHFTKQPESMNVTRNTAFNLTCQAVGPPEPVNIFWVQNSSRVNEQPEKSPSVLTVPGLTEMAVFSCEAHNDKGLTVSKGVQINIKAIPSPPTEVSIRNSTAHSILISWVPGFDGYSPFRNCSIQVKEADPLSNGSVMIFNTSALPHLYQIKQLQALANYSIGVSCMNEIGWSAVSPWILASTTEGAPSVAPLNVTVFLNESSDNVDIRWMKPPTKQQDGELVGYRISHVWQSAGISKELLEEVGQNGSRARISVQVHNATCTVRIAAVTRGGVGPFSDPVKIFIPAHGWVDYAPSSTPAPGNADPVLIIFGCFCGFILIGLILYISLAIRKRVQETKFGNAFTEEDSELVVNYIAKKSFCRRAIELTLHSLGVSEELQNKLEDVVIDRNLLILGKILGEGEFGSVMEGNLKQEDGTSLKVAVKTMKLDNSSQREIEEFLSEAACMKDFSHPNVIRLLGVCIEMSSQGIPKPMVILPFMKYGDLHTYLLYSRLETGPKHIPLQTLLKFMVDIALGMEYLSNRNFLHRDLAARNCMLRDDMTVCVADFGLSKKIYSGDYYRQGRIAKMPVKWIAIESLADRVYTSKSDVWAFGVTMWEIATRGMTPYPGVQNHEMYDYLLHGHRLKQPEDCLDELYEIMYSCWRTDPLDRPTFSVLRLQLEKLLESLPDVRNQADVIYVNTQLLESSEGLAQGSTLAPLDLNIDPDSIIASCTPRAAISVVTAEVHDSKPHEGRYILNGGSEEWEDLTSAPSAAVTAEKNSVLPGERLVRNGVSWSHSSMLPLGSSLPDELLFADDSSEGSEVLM
- protocol-text: phosphorylation enrichment, bacterial display (enrichment ratio); higher = better substrate or ligand; peptides without Tyr show the background
recorded-metric: phosphorylation enrichment
Give the value as a plain number.

Please review the entries below; each comes with its answer.
• KEINDYVEKGT [SERPINA1_Y184_Q180E] = 0.439
• GREEFYSTHPH [LRRK2_Y1402] = 1.52
• KKDGPYDVVVL [PARK7_Y67_E64D] = 0.589

Ask | For CTTIHYNFMCI [TP53_Y234_N239I_YF] , what is its reported phosphorylation enrichment?
Reply | 0.392

Ask | For SLQSEYVHYGG [CDC14A_Y591] , what is its reported phosphorylation enrichment?
Reply | 0.558

Ask | For EDKSIYRRGAR [PRKCI_Y125] , what is its reported phosphorylation enrichment?
Reply | 0.621

Ask | For KNEVLYDGENH [ARFGEF1_Y314] , what is its reported phosphorylation enrichment?
Reply | 0.398

Ask | For CKLVDYDSARH [BIN1_Y150_R145C] , what is its reported phosphorylation enrichment?
Reply | 0.381

Ask | For ARKWGYTVKGI [OAT_Y158] , what is its reported phosphorylation enrichment?
Reply | 0.377

Ask | For VMVCAYLLHRG [PTEN_Y138_I135V] , what is its reported phosphorylation enrichment?
Reply | 0.481

Ask | For SVEELYAIPPD [PEAK1_Y797] , what is its reported phosphorylation enrichment?
Reply | 9.81

Ask | For KDFTIYNPNLL [VANGL1_Y290] , what is its reported phosphorylation enrichment?
Reply | 0.478
